Sourced from the supplement of paper PMC8728848

Please provide measured glycan array binding signal (z-score) for the entries that follow.
- STUDY SYSTEM: GlcNAc(b1-4)GlcNAc(b1-4)GlcNAc
- TEST NAME: glycan array binding signal (z-score within array); higher = stronger binding
- CONDITION LABEL: glycan notation: IUPAC condensed, linker removed
The full list was thinned out, with the strongest signals kept by preference.
# answer = number (no unit)

State the recorded glycan array binding signal (z-score) for this entry: CLECSF8 (Mus musculus), Q9Z2H6 (protein) HYFLRWTRGSVVKLSDYHTRVTCIREEPQPGATGGTWTCCPVSWRAFQSNCYFPLNDNQTWHESERNCSGMSSHLVTINTEAEQNFVTQLLDKRFSYFLGLADENVEGQWQWVDKTPFNPHTVFWEKGESNDFMEEDCVVLVHVHEKWVWNDFPCHFEVRRICKLPGITFNWKPSK
1.74

State the recorded glycan array binding signal (z-score) for this entry: Microvirin-2 (Microcystis aeruginosa) (protein) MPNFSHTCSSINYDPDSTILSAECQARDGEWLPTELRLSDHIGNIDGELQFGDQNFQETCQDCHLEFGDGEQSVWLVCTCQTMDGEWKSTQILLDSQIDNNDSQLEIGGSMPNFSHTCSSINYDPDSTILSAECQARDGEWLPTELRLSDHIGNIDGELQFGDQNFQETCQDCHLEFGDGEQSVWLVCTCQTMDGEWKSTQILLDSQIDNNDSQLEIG
-0.14

State the recorded glycan array binding signal (z-score) for this entry: SP15308C-bot-338-23-338 (Bacteroides ovatus) (protein) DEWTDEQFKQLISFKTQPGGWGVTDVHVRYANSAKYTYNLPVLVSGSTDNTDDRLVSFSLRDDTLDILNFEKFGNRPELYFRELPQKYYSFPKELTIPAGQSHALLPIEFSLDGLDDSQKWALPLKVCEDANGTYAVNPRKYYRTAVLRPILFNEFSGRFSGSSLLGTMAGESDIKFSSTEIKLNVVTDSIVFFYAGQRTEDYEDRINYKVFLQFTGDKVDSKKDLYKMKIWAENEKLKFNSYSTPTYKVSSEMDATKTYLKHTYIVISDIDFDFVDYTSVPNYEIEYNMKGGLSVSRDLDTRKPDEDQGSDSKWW
-0.098
